These entries and their values trace back to patent US10184116B2.

Relative luminescence activity, bis-CTZ, Imax: recorded values
assay: Substrate specificity of WNanoKAZ mutants, crude enzyme solution (Example 11); type: biochemical; conditions: Imax
Lab note: record just the number, no unit beside it.

Query: Look up Relative luminescence activity, bis-CTZ, Imax: KAZ: 19 kDa protein of native Oplophorus luciferase having luminescence activity; SEQ ID NO: 2 (protein, listed as Oplophorus gracilirostris) FTLADFVGDWQQTAGYNQDQVLEQGGLSSLFQALGVSVTPIQKVVLSGENGLKADIHVIIPYEGLSGFQMGLIEMIFKVVYPVDDHHFKIILHYGTLVIDGVTPNMIDYFGRPYPGIAVFDGKQITVTGTLWNGNKIYDERLINPDGSLLFRVTINGVTGWRLCENILA
Reply: 0.5

Query: Queued: WNanoKAZ-I138Y: single amino acid-substituted WNanoKAZ mutant I138Y; SEQ ID NO: 14 (protein) FTLADFVGDWQQTAGYNQDQVLEQGGLSSLFQALGVSVTPIQKVVLSGENGLKADIHVIIPYEGLSGFQMGLIEMIFKVVYPVDDHHFKVILHYGTLVIDGVTPNMIDYFGRPYEGIAVFDGKKITVTGTLWNGNKIYDERLINPDGSLLFRVTINGVTGWRLCERILA
Reply: 18

Query: Queued: WNanoKAZ-R166N: single amino acid-substituted WNanoKAZ mutant R166N; SEQ ID NO: 16 (protein) FTLADFVGDWQQTAGYNQDQVLEQGGLSSLFQALGVSVTPIQKVVLSGENGLKADIHVIIPYEGLSGFQMGLIEMIFKVVYPVDDHHFKVILHYGTLVIDGVTPNMIDYFGRPYEGIAVFDGKKITVTGTLWNGNKIIDERLINPDGSLLFRVTINGVTGWRLCENILA
Reply: 17

Query: Queued: WNanoKAZ-E115P: WNanoKAZ with substitution of proline for glutamic acid at position 115; SEQ ID NO: 10 (protein) FTLADFVGDWQQTAGYNQDQVLEQGGLSSLFQALGVSVTPIQKVVLSGENGLKADIHVIIPYEGLSGFQMGLIEMIFKVVYPVDDHHFKVILHYGTLVIDGVTPNMIDYFGRPYPGIAVFDGKKITVTGTLWNGNKIIDERLINPDGSLLFRVTINGVTGWRLCERILA
Reply: 18

Query: Queued: WNanoKAZ: chimeric protein: positions 1-82 of native KAZ and 83-169 of nanoKAZ; SEQ ID NO: 6; I90V, P115E, Q124K, Y138I, N166R (protein, chimeric protein: positions 1-82 of native KAZ and 83-169 of nanoKAZ; I90V, P115E, Q124K, Y138I, N166R) FTLADFVGDWQQTAGYNQDQVLEQGGLSSLFQALGVSVTPIQKVVLSGENGLKADIHVIIPYEGLSGFQMGLIEMIFKVVYPVDDHHFKVILHYGTLVIDGVTPNMIDYFGRPYEGIAVFDGKKITVTGTLWNGNKIIDERLINPDGSLLFRVTINGVTGWRLCERILA
Reply: 32

Query: Queued: WNanoKAZ-K124Q: single amino acid-substituted WNanoKAZ mutant K124Q; SEQ ID NO: 12 (protein) FTLADFVGDWQQTAGYNQDQVLEQGGLSSLFQALGVSVTPIQKVVLSGENGLKADIHVIIPYEGLSGFQMGLIEMIFKVVYPVDDHHFKVILHYGTLVIDGVTPNMIDYFGRPYEGIAVFDGKQITVTGTLWNGNKIIDERLINPDGSLLFRVTINGVTGWRLCERILA
Reply: 36
